# tested-system: Histamine H3 receptor (Homo sapiens, UniProt Q9Y5N1)
# Sequence (Q9Y5N1 whole entry): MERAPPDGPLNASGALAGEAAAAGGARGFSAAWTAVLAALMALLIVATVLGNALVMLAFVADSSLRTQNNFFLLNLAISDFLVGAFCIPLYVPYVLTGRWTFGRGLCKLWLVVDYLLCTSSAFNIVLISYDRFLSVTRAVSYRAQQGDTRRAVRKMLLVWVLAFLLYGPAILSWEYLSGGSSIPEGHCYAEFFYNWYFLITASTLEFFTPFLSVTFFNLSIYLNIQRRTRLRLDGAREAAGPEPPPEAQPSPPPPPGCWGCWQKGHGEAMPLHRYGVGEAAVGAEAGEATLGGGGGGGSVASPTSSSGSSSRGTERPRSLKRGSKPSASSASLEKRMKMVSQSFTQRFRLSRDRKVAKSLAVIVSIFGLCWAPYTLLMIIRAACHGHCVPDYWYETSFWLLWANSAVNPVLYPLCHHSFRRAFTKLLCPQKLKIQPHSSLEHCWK
// bucketize Ki: L (below 8 µM), M (8 µM to below 10 µM), H (10 µM or more)

- compound: "CC(CCCc1ccccc1)CNC(=O)/N=C(\\N)NCC1CCc2nc(N)sc2C1 (stereo not given)"
  discrete-label: "L"
- compound: "N/C(=N\\C(=O)NCc1ccccc1)NCC1CCc2nc(N)sc2C1 (stereo not given)"
  discrete-label: "H"
- compound: "CCCCCNC(=O)/N=C(\\N)Nc1ccc(-c2sc(N)nc2C)cc1.O=C(O)C(F)(F)F.O=C(O)C(F)(F)F"
  discrete-label: "H"
- compound: "Cc1nc(N)sc1-c1ccc(N/C(N)=N/C(=O)NCc2ccccc2)cc1"
  discrete-label: "M"
- compound: "Cc1ccc(CC(C)CNC(=O)/N=C(\\N)NCC2CCc3nc(N)sc3C2)cc1 (stereo not given)"
  discrete-label: "L"
- compound: "Cc1nnc(CCCN/C(N)=N/C(=O)NCC(C)C2CCCCC2)s1 (stereo not given)"
  discrete-label: "H"
- compound: "CCCCCNC(=O)/N=C(\\N)NCC1CCc2nc(N)sc2C1.O=C(O)C(F)(F)F.O=C(O)C(F)(F)F (stereo not given)"
  discrete-label: "L"
- compound: "Cc1ccc(CC(C)CNC(=O)/N=C(\\N)Nc2ccc(-c3sc(N)nc3C)cc2)cc1 (stereo not given)"
  discrete-label: "M"
- compound: "Cc1nc(N)sc1-c1ccc(N/C(N)=N/C(=O)NC2CCCCC2)cc1"
  discrete-label: "H"

These entries and their values trace back to ChEMBL document CHEMBL5149991.
